Cited source for all entries: PubChem BioAssay AID1852

Experiment: TNF-a-driven NF-kB reporter inhibitors, primary screen, selectivity assay for NOD1/NOD2 signaling inhibitor project, cell-based, HEK293T NF-kB-Luc, luminescence (AID 1852)
Settings: TNF-a induced, 14 h, at 4 µM, active compounds read high
The campaign covered roughly 2,500 compounds. About 1,100 (44%) were called active. So high a share suggests a set chosen from earlier hits. The list shows a part of the results.
assay.readout: inhibition (%)
Write down the numeric answer in % and omit the unit.

Reference set, count: 5
structure.smiles: C/C(=N\NC(=O)c1ccc(Cl)c(Cl)c1)c1ccccn1
inhibition [%]: 102
--
structure.smiles: O=C(Nc1nc(-c2ccccc2)cs1)c1ccc2c(=O)n3c(nc2c1)CCCCC3
inhibition [%]: 106
--
structure.smiles: CN(/N=C/c1cc(Cl)cc(Cl)c1O)C(=S)NC(C)(C)C
inhibition [%]: 82.6
--
structure.smiles: O=C(/C=C/c1ccc(Cl)cc1Cl)N1CCN(c2ccccc2[N+](=O)[O-])CC1
inhibition [%]: -38.9
--
structure.smiles: COc1ccc(O)c(-c2[nH]ncc2C(=O)c2ccccc2)c1
inhibition [%]: 9.4

The record that follows has no inhibition shown yet.
Query block: # inhibition lookup, item "O=C(Nc1ccc(Oc2cccnc2)nc1)c1ccc(C(F)(F)F)cc1"
Result block: 42.6
